- ASSAY NAME: Particle size, PdI and zeta potential of mRNA-encapsulating LNPs by dynamic light scattering (Experimental Example 2)
- Assay type: physicochemical
- MEASUREMENT CONDITIONS: mRNA-encapsulating LNP containing the cationic lipid, dispersion in PBS (Table 5-3)
Consider the following compounds; for each one, report its zeta potential (mV).
Numbers only, in mV.

Please review the entries below; each comes with its answer.
CCCCCCCC/C=C\CCCCCCCC(=O)Oc1ccc(CC(=O)OCCC2CCN(CCSSCCN3CCC(CCOC(=O)Cc4ccc(OC(=O)CCCCCCC/C=C\CCCCCCCC)cc4)CC3)CC2)cc1 [Comparative Example, reference compound]    -4.47
CCCCCCCC/C=C\CCCCCCCC(=O)Oc1ccc(CC(=O)OCCC2CCN(CCSSCCN3CCC(CCOC(=O)Cc4ccc(OC(=O)CCCC(=O)OC(CC(=O)OCCCC)(CC(=O)OCCCC)CC(=O)OCCCC)cc4)CC3)CC2)cc1    -3.5
CCCCCCCC(=O)OC(CC=CCCCCCCCC(=O)Oc1ccc(CC(=O)OCCC2CCN(CCSSCCN3CCC(CCOC(=O)Cc4ccc(OC(=O)CCCCCCCC=CCC(CCCCCC)OC(=O)CCCCC)cc4)CC3)CC2)cc1)CCCCCC (centres unmarked)    -5.04

Return reported zeta potential (mV) values for all items listed beneath this line.
1. CCCCCCCC/C=C\CCCCCCCC(=O)Oc1ccc(CC(=O)OCCC2CCN(CCSSCCN3CCC(CCOC(=O)Cc4ccc(OC(=O)CCCCCCCC(OC(=O)CC)C(CCCCCCCC)OC(=O)CC)cc4)CC3)CC2)cc1 (centres unmarked)
2. CCCCCCCC/C=C\CCCCCCCC(=O)Oc1ccc(CC(=O)OCCC2CCN(CCSSCCN3CCC(CCOC(=O)Cc4ccc(OC(=O)CCCC(=O)N(CCCCCC)CCCCCC)cc4)CC3)CC2)cc1

Marked response:
-2.40
-5.07

----------
Consider the following compounds; for each one, report its zeta potential (mV).
- ASSAY NAME: Particle size, PdI and zeta potential of mRNA-encapsulating LNPs by dynamic light scattering (Experimental Example 6)
- Format: physicochemical
- MEASUREMENT CONDITIONS: mRNA-encapsulating LNP, cationic lipid:DOPC:Chol=49:7.5:42.5:1, dispersion in TBS (Tables 8-1, 8-2)
Give bare numbers, in mV.

Please review the entries below; each comes with its answer.
CCCCCCCC/C=C\CCCCCCCC(=O)Oc1ccc(CC(=O)OCCC2CCN(CCSSCCN3CCC(CCOC(=O)Cc4ccc(OC(=O)CCCC(=O)OC(CC(=O)OCCCC)(CC(=O)OCCCC)CC(=O)OCCCC)cc4)CC3)CC2)cc1    -4.2
CCCCCCC(C/C=C\CCCCCCCC(=O)Oc1ccc(CC(=O)OCCC2CCN(CCSSCCN3CCC(CCOC(=O)Cc4ccc(OC(=O)CCCCCCC/C=C\CC(CCCCCC)OC(=O)c5ccc(OCC)c(OCC)c5)cc4)CC3)CC2)cc1)OC(=O)c1ccc(OCC)c(OCC)c1 (stereo not shown)    -4.83
CCCCCCCC/C=C\CCCCCCCC(=O)Oc1ccc(CC(=O)OCCC2CCN(CCSSCCN3CCC(CCOC(=O)Cc4ccc(OC(=O)CCCCCCC/C=C\CC(CCCCCC)OC(=O)C(CC)CCCC)cc4)CC3)CC2)cc1 (stereo not shown)    -2.99

Field zeta potential (mV) (entry `CCCCCCC#CCCOC(=O)CCCC(=O)Oc1ccc(CC(=O)OCCC2CCN(CCSSCCN3CCC(CCOC(=O)Cc4ccc(OC(=O)CCCCCCCC(=O)OC(CCCCCCCC)CCCCCCCC)cc4)CC3)CC2)cc1` ) reads -7.4
